# System: MOLT-4 cells
# Protocol Notes: MOLT-4 Cell Proliferation Assay (CellTiter-Glo)
# Format: cell-based
# Experimental Context: Homo sapiens, 72 h, read-out: MOLT-4 CTG IC50
# Method: Cell proliferation was measured using the CellTiter-Glo® Luminescent Cell Viability Assay. The assay involved the addition of a single reagent (CellTiter-Glo® Reagent) directly to cells cultured in serum-supplemented medium. […] Each compound evaluated was prepared as a DMSO stock solution (10 mM). […] Luminescence was recorded using a Envision plate reader according to CellTiter-Glo protocol. IC50 of each compound was calculated using GraphPad Prism by nonlinear regression analysis.
pIC50: −log10 of the molar value.
Measured pIC50 accompanies every entry in the list below.

Field: example entries. Status: answers known.
CC1(C)CCC(CN2CCN(c3ccc(C(=O)NS(=O)(=O)c4ccc(N[C@H](CCN5CCN(CCCCNc6cccc7c6C(=O)N(C6CCC(=O)NC6=O)C7=O)CC5)CSc5ccccc5)c(S(=O)(=O)C(F)(F)F)c4)cc3)CC2)=C(C23CC(C(F)F)(C2)C3)C1 (stereo partly drawn) | ≥ 7.30
CC1(C)CCC(CN2CCN(c3ccc(C(=O)NS(=O)(=O)c4ccc(N[C@H](CCN5CCN(CCCCNc6ccc7c(c6)C(=O)N(C6CCC(=O)NC6=O)C7=O)CC5)CSc5ccccc5)c(S(=O)(=O)C(F)(F)F)c4)cc3)CC2)=C(C23CC(C(F)F)(C2)C3)C1 (stereo partly drawn) | ≥ 7.30

Lab note: next molecule to report on.
Lookup result for CCC12CC(C3=C(CN4CCN(c5ccc(C(=O)NS(=O)(=O)c6ccc(N[C@H](CCN7CCN(C(=O)CCCCCC(=O)N[C@H](C(=O)N8C[C@H](O)C[C@H]8C(=O)N[C@@H](C)c8ccc(-c9scnc9C)cc8)C(C)(C)C)CC7)CSc7ccccc7)c(S(=O)(=O)C(F)(F)F)c6)cc5)CC4)CCC(C)(C)C3)(C1)C2 ; measured pIC50: 6.82 to 7.30
